test system: Bacillus subtilis; experiment: cleaved RNA product abundance (RNA/gDNA barcode ratio) relative to median wild-type variant (ratio to wild type); higher = more accumulation of the downstream cleavage product; details: experiment (reporter, strain, medium): exp 2b: truncated aprE reporter, strain BJT200; cleavage site: cggR-gapA (positions -7 to +36 mutated)
The sequences listed here are annotated with their cleaved RNA product abundance.
// return a plain number; no unit text

Solved cases below.
Input Sequence	Target Under Test	cleaved RNA product abundance
ACAGACGAAGGAGCCGCAAAGAAGTTATTAAGGGATGAATAATCGCTCAATATAAATATCTCTCACTTATTTAAA	Bacillus subtilis	0.101
ACAGACGAAGGAGCCGCAAAGAAGTTATGAACGGATGAATAATCCCTCAATATAAATATCTCTCACTTATTTAAA	Bacillus subtilis	0.177
ACAGACGAAGGAGCCGCAAAGAAGTTATTAAGGCATGAATAATCCCACAATATAAATATCTCTCACTTATTTAAA	Bacillus subtilis	0.0968
ACAGACGAAGGAGCCGCAAAGAAGTTAATAAGGCATGAATAATCCCTCAATATAAATATCTCTCACTTATTTAAA	Bacillus subtilis	0.0718
ACAGACGAAGGAGCCGCAAAGAAGTTATTCAGGGATTAATAATCCCTCAATATAAATATCTCTCACTTATTTAAA	Bacillus subtilis	0.815

Identify the measured cleaved RNA product abundance of `ACAGACGAAGGAGCCGCAAAGAAGTTATTAAGCGATGAATAATCCCTCACTATAAATATCTCTCACTTATTTAAA` for Bacillus subtilis.
0.0669

I'm curious: which cleaved RNA product abundance was measured for `ACAGACGAAGGAGCCGCAAAGACGTTATTAAGGGATGACTAATCCCTCAATATAAATATCTCTCACTTATTTAAA` tested on Bacillus subtilis?
0.561
